Target: human alpha4beta7 (human, UniProt P13612 34-1032; P26010 20-798)
Sequence (P13612 34-1032, chain 1 of 2): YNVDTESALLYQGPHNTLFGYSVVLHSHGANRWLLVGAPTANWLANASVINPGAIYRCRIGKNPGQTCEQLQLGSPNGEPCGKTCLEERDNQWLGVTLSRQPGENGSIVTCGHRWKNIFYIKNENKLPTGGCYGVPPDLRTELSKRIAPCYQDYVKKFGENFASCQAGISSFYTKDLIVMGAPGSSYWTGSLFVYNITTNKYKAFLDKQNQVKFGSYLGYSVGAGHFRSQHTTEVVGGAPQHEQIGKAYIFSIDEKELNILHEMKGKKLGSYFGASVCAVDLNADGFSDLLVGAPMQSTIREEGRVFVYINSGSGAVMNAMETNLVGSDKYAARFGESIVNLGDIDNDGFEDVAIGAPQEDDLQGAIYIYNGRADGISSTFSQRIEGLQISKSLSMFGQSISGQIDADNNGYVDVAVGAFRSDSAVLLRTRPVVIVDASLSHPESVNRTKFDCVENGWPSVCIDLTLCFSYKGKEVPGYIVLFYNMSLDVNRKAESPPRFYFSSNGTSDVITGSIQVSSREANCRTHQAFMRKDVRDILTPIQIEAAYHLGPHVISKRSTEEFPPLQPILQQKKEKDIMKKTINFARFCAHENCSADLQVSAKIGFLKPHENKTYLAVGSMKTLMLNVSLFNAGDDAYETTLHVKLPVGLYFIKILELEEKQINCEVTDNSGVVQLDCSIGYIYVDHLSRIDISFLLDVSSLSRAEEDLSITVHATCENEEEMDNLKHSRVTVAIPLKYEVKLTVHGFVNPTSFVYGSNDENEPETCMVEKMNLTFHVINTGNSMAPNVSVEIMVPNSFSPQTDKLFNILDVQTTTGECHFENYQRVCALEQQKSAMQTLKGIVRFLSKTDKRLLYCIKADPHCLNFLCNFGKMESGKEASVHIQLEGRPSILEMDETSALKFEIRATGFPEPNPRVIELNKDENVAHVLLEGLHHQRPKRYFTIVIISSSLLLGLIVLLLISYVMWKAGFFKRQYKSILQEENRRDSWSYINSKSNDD
Sequence (P26010 20-798, chain 2 of 2): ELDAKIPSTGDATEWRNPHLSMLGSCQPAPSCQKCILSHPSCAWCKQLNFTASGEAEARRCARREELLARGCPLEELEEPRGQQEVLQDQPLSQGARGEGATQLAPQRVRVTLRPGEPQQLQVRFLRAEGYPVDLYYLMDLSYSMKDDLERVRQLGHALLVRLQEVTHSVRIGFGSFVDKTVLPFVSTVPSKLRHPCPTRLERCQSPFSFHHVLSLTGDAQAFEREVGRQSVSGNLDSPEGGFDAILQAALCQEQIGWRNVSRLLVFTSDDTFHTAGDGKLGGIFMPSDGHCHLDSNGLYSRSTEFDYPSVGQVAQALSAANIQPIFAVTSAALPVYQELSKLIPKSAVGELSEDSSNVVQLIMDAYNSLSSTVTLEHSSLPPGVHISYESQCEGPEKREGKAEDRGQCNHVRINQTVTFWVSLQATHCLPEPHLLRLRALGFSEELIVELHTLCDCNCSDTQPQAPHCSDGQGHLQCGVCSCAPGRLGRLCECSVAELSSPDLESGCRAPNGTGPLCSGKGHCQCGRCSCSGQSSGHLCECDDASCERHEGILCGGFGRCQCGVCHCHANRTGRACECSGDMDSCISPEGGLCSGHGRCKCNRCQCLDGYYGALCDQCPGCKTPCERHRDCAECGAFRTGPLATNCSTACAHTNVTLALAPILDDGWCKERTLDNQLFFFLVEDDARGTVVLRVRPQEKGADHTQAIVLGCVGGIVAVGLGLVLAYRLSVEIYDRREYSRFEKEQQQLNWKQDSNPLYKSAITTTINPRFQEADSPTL
Test: cell-based or functional assay
Property Name: HUT78 Adhesion IC50 (ng/mL)
Please reply with the bare figure in ng/mL and do not write the unit itself.

Some solved entries appear below for comparison.
Binder | Property Name | Unit Annotation | Reported Value
26G2 (antibody, V domains shown, Fully human monoclonal from XenoMouse (human IgG2 or IgG4); kappa light chain; also called 26G2k; 26G2K) VH: QVQLVESGGGLVKPGGSLRLSCAASGFTFSDYYMSWIRQAPGKGLEWVSYISSIGSAIHYADSVKGRFTISRDNAKNSLYLQMNSLRAEDTAVYYCAREYSSGWAYFDYWGQGTLVTVSS VL: DIQMTQSPSSVSASVGDRVTITCRASQDISSWLAWYQQKPGTAPKVLIYSASSLQNGVPSRFSGRGSGTDFALTISSLQPEDFATYYCQQADSFPWTFGRGTKVEIK | HUT78 Adhesion IC50 | ng/mL | 6.9
22B2 (antibody, V domains shown, Fully human monoclonal from XenoMouse (human IgG2 or IgG4); kappa light chain; also called 22B2K; 22B2H) VH: EVQLVQSGAEVKEPGESLKISCKGSGYIFTSYWIAWVRQLPGKGLEWMGIIDPNDSDTRYSPSFQGQVTISADKSIHTAYLQWSSLKASDTAMYYCATHRLWLGTLPGGFYIWGQGTMVTVSS VL: DVQMTQSPSSLSASVGDRVTITCQASQDITDYLNWYQQKPGKAPKLLIYDTSNLEAGVPSRFSGSGSGTDFTFTISSLQPEDIATYYCQQYDILPYSFGQGTDLEIK | HUT78 Adhesion IC50 | ng/mL | 3.7

Would you kindly look at the next entry?
Lab note: 27G8 (antibody, V domains shown, Fully human monoclonal from XenoMouse (human IgG2 or IgG4); lambda light chain; PE-conjugated in the cynomolgus study; also called 27G8L; 27G8H) VH: EVQLVESGGGLVQPGGSLRLSCAASGFTFSSYWMSWVRQASGKGLEWVANIKQDGSEKYYVDSVKGRFTISRDNAKNSLYLQMNSLRAEDTAVYYCAREGGYDWNYADYYGMDVWGQGTTVTVSS VL: QSVLTQPPSVSEAPRQRVTISCSGSNSNIGNNPVNWYQLFPGRAPKLLIYHDDLLPSGVSDRFSGSRSGTSASLAISGLQSEDETDYYCTAWDDSLNGWVFGGGTKLTVL gave HUT78 Adhesion IC50 of 14.9

Sourced from patent US20100254975A1
